Exercise: for every item that follows, state its recorded HepG2/STAT3 luciferase assay IC50.
Biological target: T1, hIL-6R on hIL-6-responsive human cells (XG-1 myeloma line, HepG2 hepatoma line) (human, UniProt P08887 20-468)
T1 sequence (looked up): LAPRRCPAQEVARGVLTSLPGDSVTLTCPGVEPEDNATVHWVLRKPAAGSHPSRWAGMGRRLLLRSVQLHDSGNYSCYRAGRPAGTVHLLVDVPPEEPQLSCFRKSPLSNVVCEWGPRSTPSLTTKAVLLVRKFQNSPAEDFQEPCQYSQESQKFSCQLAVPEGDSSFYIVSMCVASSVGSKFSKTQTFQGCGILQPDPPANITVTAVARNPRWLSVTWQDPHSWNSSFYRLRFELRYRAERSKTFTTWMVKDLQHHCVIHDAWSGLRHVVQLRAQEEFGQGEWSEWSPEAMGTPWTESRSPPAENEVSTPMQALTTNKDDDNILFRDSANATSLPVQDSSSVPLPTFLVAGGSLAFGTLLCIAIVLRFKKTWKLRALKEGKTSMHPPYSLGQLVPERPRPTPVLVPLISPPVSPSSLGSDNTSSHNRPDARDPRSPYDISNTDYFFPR
Experiment: cell-based or functional assay
Numeric answer plus unit only.

# annotated cases, reported HepG2/STAT3 luciferase assay IC50 shown
VV6A9-5 hIgG4 (antibody, V domains shown, Human IgG4 constant region) VH: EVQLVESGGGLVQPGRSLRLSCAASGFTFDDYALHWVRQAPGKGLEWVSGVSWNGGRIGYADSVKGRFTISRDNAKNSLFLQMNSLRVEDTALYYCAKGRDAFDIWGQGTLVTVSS VL: DIQMTQSPSSVSASVGDRVTITCRASQGISSWLAWYQQKPGKAPKLLIYAASSLQSGVPSRFSGSGSGTDFTLTISSLQPEDFATYYCQHAYSFPYTFGQGTKLEIK ... 0.343 nM
VQ8A9-6 (antibody, V domains shown, Human variable regions with mouse constant region (hybridoma-derived chimeric antibody); also called VQ8A9-6 mIgG1) VH: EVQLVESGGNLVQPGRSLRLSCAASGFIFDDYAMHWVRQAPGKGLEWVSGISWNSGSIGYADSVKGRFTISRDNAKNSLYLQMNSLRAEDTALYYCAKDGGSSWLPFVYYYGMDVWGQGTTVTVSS VL: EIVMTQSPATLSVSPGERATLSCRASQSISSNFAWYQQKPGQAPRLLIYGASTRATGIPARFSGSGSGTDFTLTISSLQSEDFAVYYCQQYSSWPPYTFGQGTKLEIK ... 0.097 nM

Attention now turns to another entry.
Item: VQ8F11-21 modhIgG4 (antibody, V domains shown, Modified human IgG4 constant region; also called VQ8F11-21 modified human IgG4) VH: EVQLVESGGGLVQPGRSLRLSCAASRFTFDDYAMHWVRQAPGKGLEWVSGISWNSGRIGYADSVKGRFTISRDNAENSLFLQMNGLRAEDTALYYCAKGRDSFDIWGQGTMVTVSS VL: DIQMTQSPSSVSASVGDRVTITCRASQGISSWLAWYQQKPGKAPKLLIYGASSLESGVPSRFSGSGSGTDFTLTISSLQPEDFASYYCQQANSFPYTFGQGTKLEIK | HepG2/STAT3 luciferase assay IC50: 0.249 nM
